For each entry below, report its ncRNA array expression, patient 27 value.
System: ncRNAs (SEQ ID NO 28-89)
TEST: ncRNA arrays of melanocytes, keratinocytes, normal skin, melanoma cell lines and patient samples
Parameters: species or system human
DETAILS: melanoma patient 27 sample compared to normal skin
One number for each entry.

Example substances with recorded ncRNA array expression, patient 27:
SEQ ID NO 67 (TTCCCTATTCCATCCTTTGATGGGTGGCCTGTTACACGTTTGGAAATAAAAACAAGTGGG; listed as DNA, chemistry not given here; listed as Homo sapiens) | 1.392
SEQ ID NO 47 (GTATTTGTAATATTTGATTTGCTTTTAGCAGAGAAAACAATAAAAGAATCCAGGAAAAGT; listed as DNA, chemistry not given here; listed as Homo sapiens) | −2.489

Here is another substance to look at.
Measured ncRNA array expression, patient 27, SEQ ID NO 52 (TTTTCTTAGTCTTTTTACTTTTTCCATTATATTCTTTGATATATTTGAGAAAATGGCTTG; listed as DNA, chemistry not given here; listed as Homo sapiens) : 0.4479

* * *

System: ncRNAs (SEQ ID NO 28-89)
TEST: ncRNA arrays of melanocytes, keratinocytes, normal skin, melanoma cell lines and patient samples
Parameters: species or system human
DETAILS: melanoma patient 19 sample compared to normal skin
Exercise: state measured ncRNA array expression, patient 19 for each of the substances provided.

SEQ ID NO 36 (TATTTGTGACTAACTGTATAACAGGTTATTTTAGTTTCTGTTCTGTGGGAAGTGTAAAGC; listed as DNA, chemistry not given here; listed as Homo sapiens) | 3.798

Could I get ncRNA array expression, patient 19 for every one of these entries?
1. SEQ ID NO 74 (TATATTACAGGAGTTGTCTATACGATTATAGTACCTGATTCTTTGGACATATCATTGAAC; listed as DNA, chemistry not given here; listed as Homo sapiens)
2. SEQ ID NO 43 (CTTAATCCACATTTGTTTTGAATTTTTCTGATTCCTATAGTACCATACTCTGATGCCTAT; listed as DNA, chemistry not given here; listed as Homo sapiens)

A.
1: −0.2091; 2: −1.531

* * *

Tested on: ncRNAs (SEQ ID NO 28-89)
TEST: ncRNA arrays of melanocytes, keratinocytes, normal skin, melanoma cell lines and patient samples
Set-up: species or system human
DETAILS: melanoma patient 21 sample compared to normal skin
For each record, write down the corresponding ncRNA array expression, patient 21.
Answers are plain numbers.

For orientation, consider the following solved cases.
SEQ ID NO 42 (TAGACATAGGTTAGAGGGGGAACAGTGCTTAAAATTCCATGGAACTAAGATTTTTTTTAT; listed as DNA, chemistry not given here; listed as Homo sapiens) | −1.59
SEQ ID NO 61 (CATACATTGCCCTCACTAATCAATGGACATTTCAGCATTTCATTACTAATTTTGAGAGAA; listed as DNA, chemistry not given here; listed as Homo sapiens) | 1.984
SEQ ID NO 88 (CTGTTGCTTATTCTGGGAGCCCAATCCTAGGCTGAGGGAGGTGGGCGCGGGGCTGTTTAA; listed as DNA, chemistry not given here; listed as Homo sapiens) | −1.527

Give measured ncRNA array expression, patient 21 for every item shown.
1. SEQ ID NO 86 (AAAATTATTTTATCTTAAGTTTCCATTTAGTTGATTAAAAATAGGGTTATGAATGTTAAA; listed as DNA, chemistry not given here; listed as Homo sapiens)
2. SEQ ID NO 84 (TTATTAAAAGGACTGAGGATCATGTGTGTTGGTGTGTCCCGGAGTCTGCTCTAAGGTAAA; listed as DNA, chemistry not given here; listed as Homo sapiens)

A.
1.056
1.56

Attribution: patent US20110143948A1
